Biological target: UniProt:P04055
Sequence (P04055 whole entry): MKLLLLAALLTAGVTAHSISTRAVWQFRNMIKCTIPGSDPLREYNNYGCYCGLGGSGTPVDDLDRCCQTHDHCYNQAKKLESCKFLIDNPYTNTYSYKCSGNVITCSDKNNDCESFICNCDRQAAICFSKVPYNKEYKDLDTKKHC
pIC50: −log10 of the molar value.
Exercise: state measured pIC50 for each of the compounds provided.

>  <compound.smiles>
O=c1cc(O)cc2oc(-c3ccc(Oc4cc(-c5cc(O)c6c(=O)cc(O)cc-6o5)ccc4O)cc3)cc(O)c1-2

>  <measured.result>
< 4.00

$$$$

Could you now look at the following compound, please?
[Q] Item under review: O=c1cc(O)cc2oc(-c3ccc(O)c(-c4c(O)cc(O)c5c(=O)cc(-c6ccc(O)cc6)oc45)c3)cc(O)c1-2 . Reported pIC50?
[A] < 4.00

These data points were gathered from BindingDB's records for doi:10.1016/j.bmc.2007.07.054.
